- Experimental system: 1b (BK) NS5bΔ21 (Hepatitis C virus genotype 1b (isolate BK) (HCV), UniProt P26663)
- Sequence (P26663 2420-2989): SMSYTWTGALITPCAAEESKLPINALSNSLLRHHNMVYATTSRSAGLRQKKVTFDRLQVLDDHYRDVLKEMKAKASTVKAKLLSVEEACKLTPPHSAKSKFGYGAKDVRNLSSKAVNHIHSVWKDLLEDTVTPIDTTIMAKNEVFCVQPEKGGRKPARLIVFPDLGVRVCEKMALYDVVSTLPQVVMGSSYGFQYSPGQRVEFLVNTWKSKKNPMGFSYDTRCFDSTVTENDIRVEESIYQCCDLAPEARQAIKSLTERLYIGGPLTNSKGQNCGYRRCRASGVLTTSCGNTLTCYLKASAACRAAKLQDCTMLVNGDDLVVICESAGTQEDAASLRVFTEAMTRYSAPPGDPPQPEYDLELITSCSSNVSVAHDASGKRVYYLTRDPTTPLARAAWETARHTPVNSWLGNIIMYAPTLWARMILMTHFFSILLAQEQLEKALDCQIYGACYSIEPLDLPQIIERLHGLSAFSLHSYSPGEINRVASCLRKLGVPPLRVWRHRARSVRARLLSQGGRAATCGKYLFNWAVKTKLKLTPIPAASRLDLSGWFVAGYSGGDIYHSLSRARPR
- Run description: HCV polymerase inhibition assay, genotype 1b
- Format: biochemical, HCV genotype 1b (BK)
- Stated conditions: 1b (BK) NS5bΔ21, 33P-GTP incorporation; read-out: 1b polymerase IC50 (range class)
pIC50: −log10 of the molar value.
Quick reference: pIC50 of the listed items.
Value kind: pIC50

>>> measurement("CCC(c1cc2nn(-c3ccc(C)cc3)c(C(=O)NC)c2cc1C1CC1)S(C)(=O)=O (racemic)")
"4.30 to 5.00"
>>> measurement("CNC(=O)c1c2cc(C3CC3)c(N(CCCO)S(C)(=O)=O)cc2nn1-c1ccc(COC(C)C)cc1")
"5.00 to 6.00"
>>> measurement("CCN(c1cc2nn(-c3ccc(F)cc3)c(C(=O)NC)c2cc1-c1csc(C)n1)S(C)(=O)=O")
"4.30 to 5.00"
>>> measurement("CCOC(=O)CCCC(c1cc2nn(-c3ccc(C)cc3)c(C(=O)NC)c2cc1C1CC1)S(C)(=O)=O (racemic)")
"4.30 to 5.00"
>>> measurement("CNC(=O)c1c2cc(C3CC3)c(-c3c(C)noc3C)cc2nn1-c1ccc(C)cc1")
"4.30 to 5.00"
>>> measurement("CNC(=O)c1c2cc(C3CC3)c(N(CCCO)S(C)(=O)=O)cc2nn1-c1ccc(C)c(F)c1")
"> 6.00"
>>> measurement("CNC(=O)c1c2cc(C3CC3)c(N(CCCOC)S(C)(=O)=O)cc2nn1-c1ccc(Cl)cc1")
"> 6.00"
>>> measurement("CCN(c1cc2nn(-c3ccc(F)cc3)c(C(=O)NC)c2cc1OCC#N)S(C)(=O)=O")
"> 6.00"
>>> measurement("CNC(=O)c1c2cc(C3CC3)c(N(CCO)S(C)(=O)=O)cc2nn1-c1ccc(Nc2cccc(O)c2)cc1")
"4.30 to 5.00"
>>> measurement("CNC(=O)c1c2cc(C3CC3)c(N(CCCO)S(C)(=O)=O)cc2nn1-c1ccc(NCC(C)C)cc1")
"5.00 to 6.00"
>>> measurement("CNC(=O)c1c2cc(C3CC3)c(N(CC(C)O)S(C)(=O)=O)cc2nn1-c1ccc(Br)cc1 (stereo not shown)")
"5.00 to 6.00"
>>> measurement("C=C(C)c1ccc(-n2nc3cc(N(CC)S(C)(=O)=O)c(C4CC4)cc3c2C(=O)NC)cc1")
"5.00 to 6.00"
>>> measurement("CNC(=O)c1c2cc(C3CC3)c(N(CCCNC(=O)[C@H]3COCCN3C)S(C)(=O)=O)cc2nn1-c1ccc(Cl)cc1")
"> 6.00"
>>> measurement("CNC(=O)c1c2cc(C3CC3)c(N(CCCO)S(C)(=O)=O)cc2nn1-c1ccc(C(C)C)cc1")
"5.00 to 6.00"
>>> measurement("CCOC(=O)C(CCCN(c1cc2nn(-c3ccc(Br)cc3)c(C(=O)NC)c2cc1C1CC1)S(C)(=O)=O)C(=O)OCC")
"> 6.00"
>>> measurement("CNC(=O)c1c2cc(C3CC3)c(N(CCC[S+](C)[O-])S(C)(=O)=O)cc2nn1-c1ccc(Br)cc1 (stereo not shown)")
"> 6.00"

----------
Quick reference: pIC50 of the listed items.
- Experimental system: genotype 3a (VRL-69) NS5bΔ21 polymerase (Hepatitis C virus genotype 3a, UniProt Q81258)
- Sequence (Q81258 whole entry, looked up, stated change not applied): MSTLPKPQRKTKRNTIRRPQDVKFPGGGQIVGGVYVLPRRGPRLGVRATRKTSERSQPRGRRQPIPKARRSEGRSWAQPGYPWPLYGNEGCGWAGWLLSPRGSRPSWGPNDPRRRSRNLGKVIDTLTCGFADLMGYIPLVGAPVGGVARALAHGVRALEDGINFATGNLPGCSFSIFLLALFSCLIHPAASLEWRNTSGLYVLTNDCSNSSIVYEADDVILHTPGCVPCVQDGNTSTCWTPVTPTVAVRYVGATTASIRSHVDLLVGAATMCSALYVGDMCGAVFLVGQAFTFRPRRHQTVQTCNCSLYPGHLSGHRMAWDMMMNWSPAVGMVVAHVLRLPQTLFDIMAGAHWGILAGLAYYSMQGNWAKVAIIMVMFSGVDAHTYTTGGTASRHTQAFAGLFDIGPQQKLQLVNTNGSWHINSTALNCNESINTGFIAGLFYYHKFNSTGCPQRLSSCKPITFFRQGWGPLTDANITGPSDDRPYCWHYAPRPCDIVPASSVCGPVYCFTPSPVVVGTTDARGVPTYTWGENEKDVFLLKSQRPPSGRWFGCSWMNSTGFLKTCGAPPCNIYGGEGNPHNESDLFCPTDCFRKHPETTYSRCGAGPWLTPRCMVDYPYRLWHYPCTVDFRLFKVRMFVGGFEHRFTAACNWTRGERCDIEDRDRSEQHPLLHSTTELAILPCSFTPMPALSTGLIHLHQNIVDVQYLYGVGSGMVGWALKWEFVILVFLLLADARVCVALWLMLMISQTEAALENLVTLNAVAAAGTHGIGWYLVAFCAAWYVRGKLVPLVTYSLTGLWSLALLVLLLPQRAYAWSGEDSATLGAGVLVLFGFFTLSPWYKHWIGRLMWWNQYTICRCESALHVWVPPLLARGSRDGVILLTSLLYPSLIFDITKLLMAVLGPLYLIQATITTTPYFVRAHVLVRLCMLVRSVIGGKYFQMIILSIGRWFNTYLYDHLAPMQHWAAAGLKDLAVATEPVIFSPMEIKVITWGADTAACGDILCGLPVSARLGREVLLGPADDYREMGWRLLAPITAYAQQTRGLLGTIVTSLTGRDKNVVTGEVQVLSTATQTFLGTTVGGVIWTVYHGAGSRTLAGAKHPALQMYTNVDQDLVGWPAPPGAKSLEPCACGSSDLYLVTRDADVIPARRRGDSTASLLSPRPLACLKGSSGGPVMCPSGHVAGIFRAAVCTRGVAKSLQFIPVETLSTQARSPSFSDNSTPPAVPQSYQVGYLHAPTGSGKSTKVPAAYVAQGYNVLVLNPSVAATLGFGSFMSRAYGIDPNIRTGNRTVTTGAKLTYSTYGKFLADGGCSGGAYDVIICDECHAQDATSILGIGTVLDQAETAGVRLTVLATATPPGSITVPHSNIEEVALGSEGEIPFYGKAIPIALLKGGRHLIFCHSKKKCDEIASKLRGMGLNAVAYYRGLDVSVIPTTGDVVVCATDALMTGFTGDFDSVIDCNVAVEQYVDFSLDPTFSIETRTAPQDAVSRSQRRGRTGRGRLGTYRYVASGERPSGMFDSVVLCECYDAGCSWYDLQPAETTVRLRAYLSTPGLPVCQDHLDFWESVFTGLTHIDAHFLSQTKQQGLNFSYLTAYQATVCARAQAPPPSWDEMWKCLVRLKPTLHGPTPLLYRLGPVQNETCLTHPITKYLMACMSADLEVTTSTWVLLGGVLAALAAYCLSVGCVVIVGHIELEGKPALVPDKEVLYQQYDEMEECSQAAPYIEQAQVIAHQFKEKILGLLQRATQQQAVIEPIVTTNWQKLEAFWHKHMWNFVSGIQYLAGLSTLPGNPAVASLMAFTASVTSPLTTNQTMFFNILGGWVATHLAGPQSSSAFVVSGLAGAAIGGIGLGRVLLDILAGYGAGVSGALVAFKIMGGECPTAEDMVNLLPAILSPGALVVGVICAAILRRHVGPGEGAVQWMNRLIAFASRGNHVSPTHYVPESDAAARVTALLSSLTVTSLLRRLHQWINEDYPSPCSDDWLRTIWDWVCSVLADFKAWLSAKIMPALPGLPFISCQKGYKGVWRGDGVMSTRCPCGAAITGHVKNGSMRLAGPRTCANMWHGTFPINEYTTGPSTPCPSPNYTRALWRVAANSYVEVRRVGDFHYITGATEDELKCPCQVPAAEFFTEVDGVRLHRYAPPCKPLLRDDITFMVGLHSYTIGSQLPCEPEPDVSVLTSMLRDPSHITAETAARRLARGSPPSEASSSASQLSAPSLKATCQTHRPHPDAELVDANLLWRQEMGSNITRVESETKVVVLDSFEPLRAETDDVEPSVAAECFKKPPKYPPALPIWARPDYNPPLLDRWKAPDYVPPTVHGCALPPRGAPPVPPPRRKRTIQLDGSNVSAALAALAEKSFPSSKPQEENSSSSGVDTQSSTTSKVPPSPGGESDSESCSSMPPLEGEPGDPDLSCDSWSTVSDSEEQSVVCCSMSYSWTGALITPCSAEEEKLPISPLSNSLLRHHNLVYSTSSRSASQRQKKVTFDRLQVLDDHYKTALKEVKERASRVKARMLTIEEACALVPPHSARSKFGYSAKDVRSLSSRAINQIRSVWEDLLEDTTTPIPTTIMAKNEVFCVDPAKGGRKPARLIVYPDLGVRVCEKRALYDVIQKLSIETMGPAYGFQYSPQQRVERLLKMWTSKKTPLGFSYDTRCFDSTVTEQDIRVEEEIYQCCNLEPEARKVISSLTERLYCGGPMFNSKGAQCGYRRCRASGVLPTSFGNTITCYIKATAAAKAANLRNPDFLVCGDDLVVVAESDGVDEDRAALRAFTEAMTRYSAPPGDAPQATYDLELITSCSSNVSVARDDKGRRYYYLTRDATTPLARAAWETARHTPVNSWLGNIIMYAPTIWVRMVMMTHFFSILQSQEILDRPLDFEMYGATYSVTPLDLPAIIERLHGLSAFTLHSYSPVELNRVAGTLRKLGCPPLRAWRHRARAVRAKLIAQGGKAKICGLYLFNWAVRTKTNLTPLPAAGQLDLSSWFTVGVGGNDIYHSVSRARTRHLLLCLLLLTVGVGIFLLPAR
- Run description: HCV polymerase inhibition assay, genotype 3a
- Type: biochemical, HCV genotype 3a (VRL-69)
- Stated conditions: genotype 3a; read-out: 3a NS5b polymerase IC50
pIC50: −log10 of the molar value.
Value kind: pIC50

>>> measurement("C=CCN(c1cc2nn(-c3ccc(Br)cc3)c(C(=O)NC)c2cc1C1CC1)S(C)(=O)=O [Compound 98]")
7.52
>>> measurement("CNC(=O)c1c2cc(C3CC3)c(N(CCCNS(C)(=O)=O)S(C)(=O)=O)cc2nn1-c1ccc(Br)cc1 [Compound 134]")
7.52
>>> measurement("CNC(=O)c1c2cc(C3CC3)c(N(CCCNC(C)=O)S(C)(=O)=O)cc2nn1-c1ccc(Nc2ccc(F)cc2)cc1 [Compound 119]")
7.52

# credit: patent US8546389B2
